Reported viability at 24 h, 75 µM values for the following molecules.
Test summary: MTT cytotoxic activity assay on MDA-MB-231 breast cancer cells
Assay type: cell-based, human
Condition info: human, MDA-MB-231 breast cancer cells; MDA-MB-231, 75 µM; read-out: cell viability

Here are 2 molecules together with their reported answers.
Molecule	viability at 24 h, 75 µM
C[C@@H]1O[C@@H](OCc2cc(O)c3c(c2)[C@H]([C@@H]2O[C@H](CO)[C@@H](O)[C@H](O)[C@H]2O)c2cccc(O)c2C3=O)[C@H](O)[C@H](O)[C@H]1O [Compound 11, aloinoside B]	64%
COc1cc(=O)oc2cc(O)cc(C)c12 [Compound 12, 7-demethylsiderin]	44%

Could you now consider this next molecule?
IN: For the molecule shown here, O=C1c2c(O)cccc2[C@](O)([C@@H]2O[C@H](CO)[C@@H](O)[C@H](O)[C@H]2O)c2cc(CO)cc(O)c21 [Compound 10, 10-hydroxy aloin A] , give the reported viability at 24 h, 75 µM.
OUT: 77%

* * *

Test summary: DPPH radical scavenging (antioxidant) assay
Condition info: 1 mM
Recorded % Inhibition (1 mM), one value per entry.
Note: unit % is implicit; provide only the numeric part.

IN: Requested read-out: % Inhibition (1 mM). Entry: CC(=O)Cc1cc(=O)c2c(C)cc(O)c(C3OC(COC(=O)C=Cc4ccc(O)cc4)C(O)C(O)C3O)c2o1 (stereo not shown) [Compound 13, 6′-O-coumaroylaloesin]
OUT: 73

IN: So what's the measured % Inhibition (1 mM) for this one? Oc1cc(O)c2c(c1)O[C@H](c1ccc(O)c(O)c1)[C@@H](O)C2 [Compound 4, catechin]
OUT: 78

IN: What value of % Inhibition (1 mM) has been reported for the following compound? C[C@@H]1C[C@@H](O)Cc2cc(O)cc(O)c21 [Compound 14, feroxidin]
OUT: 80

IN: Item under review: Cc1cc(O)c2c(c1)C(=O)c1cc(O)cc(O)c1C2=O [Compound 6, emodin] . Reported % Inhibition (1 mM)?
OUT: 71

* * *

Experimental target: bovine erythrocyte CA-II (Bos taurus, UniProt P00921)
Construct: purified bovine erythrocyte CA-II; purchased Sigma-Aldrich; host or cells: bovine erythrocytes (natural source)
Sequence (P00921 whole entry): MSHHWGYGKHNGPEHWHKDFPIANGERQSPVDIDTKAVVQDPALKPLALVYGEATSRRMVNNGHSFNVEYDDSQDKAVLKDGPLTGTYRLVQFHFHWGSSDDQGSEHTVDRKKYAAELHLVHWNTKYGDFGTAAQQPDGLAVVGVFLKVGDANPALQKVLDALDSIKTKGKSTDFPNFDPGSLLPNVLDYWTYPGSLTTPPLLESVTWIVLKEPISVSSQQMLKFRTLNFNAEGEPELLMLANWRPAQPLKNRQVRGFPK
Test summary: Carbonic anhydrase II inhibition (4-nitrophenyl acetate)
Format: biochemical
Set-up: concentration or dose not given beside the values
Condition info: CA-II in vitro
In this section we review reported % Inhibition values for a set of compounds.

                                   compound                       experimental_target  experimental_result
0  O=C1c2cccc(O)c2C(=O)c2c(O)cc(CO)cc21 [Compound 5, aloe emodin]  bovine erythrocyte CA-II (Bos taurus, UniProt P00921)                86.3%
1  C=C1C(=O)O[C@@H]2/C=C(\C)CC/C=C(\C)CC[C@@H]12 [Compound 2, costunolide]  bovine erythrocyte CA-II (Bos taurus, UniProt P00921)                84.7%
2  C=C1CC[C@H]2C(=C)CC[C@H]3C(=C)C(=O)O[C@@H]3[C@@H]12 [Compound 1, dehydrocostus lactone]  bovine erythrocyte CA-II (Bos taurus, UniProt P00921)                  33%

IN: API: value(readout=% Inhibition, system=bovine erythrocyte CA-II (Bos taurus, UniProt P00921)) for record COc1cc(=O)oc2cc(O)cc(C)c12 [Compound 12, 7-demethylsiderin]
OUT: 91.2%
